This listing pairs compounds with measured pIC50.
- assayed_target: HIV-1 RT-associated RNase H activity (wt RT) (Human immunodeficiency virus type 1 group M subtype B)
- Construct: RT is a heterodimeric (p66/p51) multifunctional enzyme
- assay_protocol: HIV-1 DNA polymerase-independent RNase H activity, wt RT
- test_context: RNase H IC50, wt RT
pIC50: −log10 of the molar value.

Examples with their reported pIC50 follow.
The value of pIC50 measured for the compound Cc1ccc(Cl)cc1Nc1nc(C(F)(F)F)ccc1C(=O)Oc1ccc(Cl)cc1Cl [Compound 14] turned out to be < 4.00

The value of pIC50 measured for the compound COc1ccc(NC(=O)c2ccc(C(F)(F)F)nc2Nc2cc(Cl)ccc2C)cc1Cl [Compound 32] turned out to be < 4.00

New cases:
The value of pIC50 measured for the compound Cc1ccc(Cl)cc1Nc1nc(C(F)(F)F)ccc1C(=O)Oc1ccccc1Cl [Compound 11] turned out to be < 4.00

----------
- assay_protocol: Cell viability in CEM cells (MTT)
- Type: cell-based
- test_context: human, MTT, 5 days
This listing pairs molecules with measured CC50 at 5 days.
Dear colleague, please return just the value in µM, with no unit written.

The value of CC50 at 5 days measured for the molecule Cc1ccc(Cl)cc1Nc1nc(C(F)(F)F)ccc1C(=O)NCc1ccc(C(F)(F)F)cc1 turned out to be 5

The value of CC50 at 5 days measured for the molecule Cc1cccc(NC(=O)c2ccc(C(F)(F)F)nc2Nc2cc(Cl)ccc2C)c1 turned out to be 6.3

The value of CC50 at 5 days measured for the molecule Cc1ccc(Cl)cc1Nc1nc(C(F)(F)F)ccc1C(=O)NCc1ccc(Cl)cc1Cl turned out to be 9.15

The value of CC50 at 5 days measured for the molecule Cc1ccc(Cl)cc1Nc1nc(C(F)(F)F)ccc1C(=O)Nc1ccc(C(F)(F)F)cc1 turned out to be 4.3

The value of CC50 at 5 days measured for the molecule Cc1ccc(Cl)cc1Nc1nc(C(F)(F)F)ccc1C(=O)NCc1ccc(Cl)c(Cl)c1 turned out to be 10.6

The value of CC50 at 5 days measured for the molecule Cc1ccc(Cl)cc1Nc1nc(C(F)(F)F)ccc1C(=O)Nc1ccc(Cl)cc1Cl turned out to be 7.8

The value of CC50 at 5 days measured for the molecule Cc1ccc(Cl)cc1Nc1nc(C(F)(F)F)ccc1C(=O)NCc1ccc(Cl)cc1 turned out to be 7.75

The value of CC50 at 5 days measured for the molecule Cc1ccc(Cl)cc1Nc1nc(C(F)(F)F)ccc1C(=O)Nc1cccc(Cl)c1 turned out to be 8.4

----------
This listing pairs compounds with measured CC50 at 5 days.
- assay_protocol: Cell viability in CEM cells (MTT)
- Assay type: cell-based
- test_context: human, MTT, 5 days

Examples with their reported CC50 at 5 days follow.
The value of CC50 at 5 days measured for the compound CCOC(=O)c1ccc(C(F)(F)F)nc1Nc1cc(Cl)ccc1C turned out to be > 50 µM

The value of CC50 at 5 days measured for the compound COc1ccccc1CNC(=O)c1ccc(C(F)(F)F)nc1Nc1cc(Cl)ccc1C turned out to be > 12.5 µM

The value of CC50 at 5 days measured for the compound Cc1ccc(Cl)cc1Nc1nc(C(F)(F)F)ccc1C(=O)Oc1ccc(Cl)cc1 turned out to be > 50 µM

The value of CC50 at 5 days measured for the compound Cc1ccc(Cl)cc1Nc1nc(C(F)(F)F)ccc1C(=O)Oc1cccc(O)c1 turned out to be > 50 µM

The value of CC50 at 5 days measured for the compound COc1ccc(OC(=O)c2ccc(C(F)(F)F)nc2Nc2cc(Cl)ccc2C)cc1 turned out to be > 50 µM

Attention now shifts to the item below.
The value of CC50 at 5 days measured for the compound O=C1Nc2ccc(Cl)cc2[C@@](C#CC2CC2)(C(F)(F)F)O1 [EFV, efavirenz, reference compound] turned out to be > 50 µM

----------
- assay_protocol: Cell viability in CEM cells (MTT)
- Type: cell-based
- test_context: human, MTT, 5 days
This listing pairs compounds with measured CC50 at 5 days.

Examples with their reported CC50 at 5 days follow.
The value of CC50 at 5 days measured for the compound COc1cc(OC)cc(OC(=O)c2ccc(C(F)(F)F)nc2Nc2cc(Cl)ccc2C)c1 turned out to be > 50 µM

The value of CC50 at 5 days measured for the compound Cc1ccc(Cl)cc1Nc1nc(C(F)(F)F)ccc1C(=O)N1CCN(c2ccc(Cl)c(Cl)c2)CC1 turned out to be > 50 µM

New cases:
The value of CC50 at 5 days measured for the compound CSc1ccc(OC(=O)c2ccc(C(F)(F)F)nc2Nc2cc(Cl)ccc2C)cc1 turned out to be > 50 µM

The value of CC50 at 5 days measured for the compound Cc1ccc(Cl)cc1Nc1nc(C(F)(F)F)ccc1C(=O)Oc1ccccc1O turned out to be > 12.5 µM

Source: paper PMC7144554
